// reported pIC50 per item
- Tested on: N9
- Assay: Antiinflammatory activity against mouse N9 cells assessed as inhibition of LPS/IFN-gamma-induced nitrite accumulation after 24 hrs
- Condition summary: N9, 24 h
pIC50: −log10 of the molar value.

Compound	Assayed system	Comparison sign	pIC50
CC(=N)NCc1cccc(CN)c1 [1400W]	N9	=	5.20
CC(C)=CC[C@H]1C[C@]2(C(=O)C(C)C)C(=O)[C@@](CC=C(C)C)(C(=O)C3=C2O[C@H](C(C)(C)O)C3)C1(C)C	N9	<	4.52
COC(=O)[C@]1(CC=C(C)C)C[C@@H](CC=C(C)C)C(C)(C)[C@@H](C(=O)C(C)C)C1=O	N9	<	4.52
CC(C)=CC[C@H]1C[C@@H](CC=C(C)C)C(C)(C)[C@@H](C(=O)C(C)C)C1=O	N9	<	4.52
CC(C)=CC[C@H]1C[C@]2(C(=O)C(C)C)C(=O)[C@@](CC=C(C)C)(C(=O)C3=C2O[C@@H](C(C)(C)O)C3)C1(C)C	N9	=	4.89

Each recorded value in this set is attributed to ChEMBL document CHEMBL1148937.
